system_tested: human α2β2γ1 complex (Homo sapiens, UniProt O43741+P54619+P54646)
Construct: (His)6
Sequence (P54646 whole entry, one chain of several): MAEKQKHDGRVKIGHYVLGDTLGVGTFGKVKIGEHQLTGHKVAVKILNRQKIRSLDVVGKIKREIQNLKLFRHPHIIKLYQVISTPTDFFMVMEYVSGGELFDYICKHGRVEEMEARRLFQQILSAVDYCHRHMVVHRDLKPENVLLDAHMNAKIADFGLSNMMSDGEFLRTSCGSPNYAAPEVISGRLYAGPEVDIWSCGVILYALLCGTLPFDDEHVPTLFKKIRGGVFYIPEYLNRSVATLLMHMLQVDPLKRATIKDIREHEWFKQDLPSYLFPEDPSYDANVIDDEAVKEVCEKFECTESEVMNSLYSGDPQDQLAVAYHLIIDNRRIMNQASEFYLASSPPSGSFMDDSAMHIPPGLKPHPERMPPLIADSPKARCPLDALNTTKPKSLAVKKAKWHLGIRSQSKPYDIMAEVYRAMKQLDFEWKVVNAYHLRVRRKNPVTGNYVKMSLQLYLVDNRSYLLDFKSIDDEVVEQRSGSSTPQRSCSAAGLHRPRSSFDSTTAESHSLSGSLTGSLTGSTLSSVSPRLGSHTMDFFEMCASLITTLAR
Sequence (O43741 whole entry partner, one chain of several): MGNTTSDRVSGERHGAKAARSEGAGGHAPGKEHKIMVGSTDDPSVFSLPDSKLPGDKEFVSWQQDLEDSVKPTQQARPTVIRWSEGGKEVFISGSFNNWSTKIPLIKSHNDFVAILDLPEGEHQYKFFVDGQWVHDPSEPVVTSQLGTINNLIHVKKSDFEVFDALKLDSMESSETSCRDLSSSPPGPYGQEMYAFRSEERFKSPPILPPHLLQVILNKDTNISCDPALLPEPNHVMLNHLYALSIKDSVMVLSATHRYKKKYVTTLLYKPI
method_notes: Cell-free kinase assay of bacterially expressed human α2β2γ1 complex phosphorylated on Thr172 by CaMKK2
experimental_setup: ATP 200 µM; read-out: IC50, inhibition of human α2β2γ1 complex
measurement_type: IC50 (nM)

molecular_string=CCc1ccccc1C(=O)Nc1n[nH]c2c(C)c(F)c(C3C(C#N)=C(C)N(C)C(C)=C3C#N)cc12 measurement_type=IC50 number=70

----------
system_tested: human α1β1γ1 complex (Homo sapiens, UniProt Q13131)
Sequence (Q13131 whole entry): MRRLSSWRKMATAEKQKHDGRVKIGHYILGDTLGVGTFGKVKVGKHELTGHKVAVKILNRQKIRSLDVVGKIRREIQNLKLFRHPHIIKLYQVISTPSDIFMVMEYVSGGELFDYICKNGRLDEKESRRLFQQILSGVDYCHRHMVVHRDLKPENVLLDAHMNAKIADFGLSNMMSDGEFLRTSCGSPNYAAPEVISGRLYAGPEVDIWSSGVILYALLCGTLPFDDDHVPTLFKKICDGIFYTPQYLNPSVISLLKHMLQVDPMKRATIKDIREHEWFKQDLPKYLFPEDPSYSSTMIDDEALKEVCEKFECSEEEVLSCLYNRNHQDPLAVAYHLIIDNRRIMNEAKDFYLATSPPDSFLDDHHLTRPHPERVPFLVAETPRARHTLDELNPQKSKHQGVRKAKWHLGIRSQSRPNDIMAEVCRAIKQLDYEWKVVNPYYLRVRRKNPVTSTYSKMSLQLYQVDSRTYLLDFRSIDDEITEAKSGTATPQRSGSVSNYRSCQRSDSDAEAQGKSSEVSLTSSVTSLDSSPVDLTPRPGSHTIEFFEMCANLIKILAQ
Sequence (P54619 whole entry, further chain): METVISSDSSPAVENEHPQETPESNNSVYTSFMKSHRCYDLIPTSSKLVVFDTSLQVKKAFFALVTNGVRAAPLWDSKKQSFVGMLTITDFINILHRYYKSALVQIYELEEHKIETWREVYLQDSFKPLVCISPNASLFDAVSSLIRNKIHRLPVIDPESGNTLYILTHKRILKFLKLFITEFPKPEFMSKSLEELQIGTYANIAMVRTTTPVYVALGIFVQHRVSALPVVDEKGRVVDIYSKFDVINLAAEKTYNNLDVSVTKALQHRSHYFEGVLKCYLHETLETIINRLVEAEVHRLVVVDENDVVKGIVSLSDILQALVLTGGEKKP
Sequence (Q9Y478 2-270, further chain): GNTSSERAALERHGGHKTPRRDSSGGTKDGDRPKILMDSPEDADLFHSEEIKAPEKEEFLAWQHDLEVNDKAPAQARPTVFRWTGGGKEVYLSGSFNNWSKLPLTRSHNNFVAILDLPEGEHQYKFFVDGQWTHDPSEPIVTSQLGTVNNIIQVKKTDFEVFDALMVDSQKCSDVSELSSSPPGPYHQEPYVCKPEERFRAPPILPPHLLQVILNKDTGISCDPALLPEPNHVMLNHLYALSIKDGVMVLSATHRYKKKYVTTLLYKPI
method_notes: Cell-free kinase assay of bacterially expressed human α1β1γ1 complex phosphorylated on Thr172 by CaMKK2
Assay type: biochemical
experimental_setup: ATP 200 µM; read-out: IC50, inhibition of human α1β1γ1 complex
pIC50: −log10 of the molar value.
measurement_type: pIC50

molecular_string=CCc1ccccc1C(=O)Nc1n[nH]c2c(C)c(F)c(C3C(C#N)=C(C)N(C)C(C)=C3C#N)cc12 system_tested="human α1β1γ1 complex (Homo sapiens, UniProt Q13131)" measurement_type=pIC50 number=7.60

----------
system_tested: isolated kinase domain of the human α2 isoform (residues 1–310) (Homo sapiens, UniProt P54646)
Construct: human GST-tagged α2 kinase domain (1–310) was produced as described; GST
Sequence (P54646 1-310): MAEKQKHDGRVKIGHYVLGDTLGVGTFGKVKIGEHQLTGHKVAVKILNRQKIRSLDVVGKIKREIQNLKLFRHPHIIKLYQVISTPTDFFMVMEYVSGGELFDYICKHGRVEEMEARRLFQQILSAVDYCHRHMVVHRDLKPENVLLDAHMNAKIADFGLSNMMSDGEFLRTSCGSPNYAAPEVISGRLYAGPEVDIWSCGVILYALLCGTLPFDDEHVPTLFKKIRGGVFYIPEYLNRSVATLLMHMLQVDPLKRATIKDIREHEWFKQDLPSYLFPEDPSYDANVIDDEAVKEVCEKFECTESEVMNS
method_notes: Cell-free kinase assay of isolated α2 kinase domain phosphorylated on Thr172 by CaMKK2
experimental_setup: ATP 200 µM; read-out: IC50, inhibition of human α2 kinase domain
Each entry below lists one item and its recorded IC50 value.
measurement_type: IC50 (nM)

molecular_string=CCc1ccccc1C(=O)Nc1n[nH]c2c(C)c(F)c(C3C(C#N)=C(C)N(C)C(C)=C3C#N)cc12 measurement_type=IC50 value_units=nM number=89
molecular_string=CNC(=O)c1ccccc1Oc1nc(Nc2cc(OC)c(OC)c(OC)c2)ncc1Br measurement_type=IC50 value_units=nM number=545

----------
method_notes: Aqueous solubility
Type: physicochemical
experimental_setup: aqueous medium (not further specified)
measurement_type: solubility

molecular_string=CCc1ccccc1C(=O)Nc1n[nH]c2c(C)c(F)c(C3C(C#N)=C(C)N(C)C(C)=C3C#N)cc12 measurement_type=solubility result="0.3 µg/mL"

----------
method_notes: Pharmacokinetic study in mice, blood levels by LC:MS
Type: in vivo, NOD-SCID mice
experimental_setup: female, NOD-SCID, mouse, whole blood; 10 mg/kg oral gavage after 1-aminobenzotriazole 50 mg/kg, after 8 h
measurement_type: concentration at 8 h

molecular_string=CCc1ccccc1C(=O)Nc1n[nH]c2c(C)c(F)c(C3C(C#N)=C(C)N(C)C(C)=C3C#N)cc12 measurement_type="concentration at 8 h" result="20 nM"

----------
system_tested: LKB1 (human LKB1:STRADα:MO25α complex) (Homo sapiens, UniProt Q15831)
Sequence (Q15831 whole entry): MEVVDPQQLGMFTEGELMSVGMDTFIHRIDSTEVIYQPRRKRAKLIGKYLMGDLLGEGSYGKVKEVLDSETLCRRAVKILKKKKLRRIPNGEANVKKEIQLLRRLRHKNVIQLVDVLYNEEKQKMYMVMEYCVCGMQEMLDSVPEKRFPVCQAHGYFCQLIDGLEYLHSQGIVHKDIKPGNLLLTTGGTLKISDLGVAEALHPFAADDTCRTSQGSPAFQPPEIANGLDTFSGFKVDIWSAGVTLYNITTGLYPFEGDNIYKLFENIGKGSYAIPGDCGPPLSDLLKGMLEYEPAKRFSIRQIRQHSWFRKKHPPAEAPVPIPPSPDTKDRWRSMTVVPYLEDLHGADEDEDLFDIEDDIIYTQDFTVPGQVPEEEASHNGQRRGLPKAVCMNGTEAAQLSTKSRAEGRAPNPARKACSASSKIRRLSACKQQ
Sequence (Q7RTN6 whole entry partner): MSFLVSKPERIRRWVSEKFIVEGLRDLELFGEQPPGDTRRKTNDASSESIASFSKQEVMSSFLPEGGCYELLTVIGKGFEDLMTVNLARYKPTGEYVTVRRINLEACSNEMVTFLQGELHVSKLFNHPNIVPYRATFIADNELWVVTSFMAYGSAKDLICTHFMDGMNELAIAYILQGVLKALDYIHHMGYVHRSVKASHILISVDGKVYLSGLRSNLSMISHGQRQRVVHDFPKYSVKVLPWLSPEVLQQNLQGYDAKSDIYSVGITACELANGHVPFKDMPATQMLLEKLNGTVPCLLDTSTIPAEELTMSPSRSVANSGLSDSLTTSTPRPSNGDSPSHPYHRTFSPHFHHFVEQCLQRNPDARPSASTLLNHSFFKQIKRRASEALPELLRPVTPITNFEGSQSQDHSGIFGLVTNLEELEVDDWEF
Sequence (Q9Y376 whole entry partner): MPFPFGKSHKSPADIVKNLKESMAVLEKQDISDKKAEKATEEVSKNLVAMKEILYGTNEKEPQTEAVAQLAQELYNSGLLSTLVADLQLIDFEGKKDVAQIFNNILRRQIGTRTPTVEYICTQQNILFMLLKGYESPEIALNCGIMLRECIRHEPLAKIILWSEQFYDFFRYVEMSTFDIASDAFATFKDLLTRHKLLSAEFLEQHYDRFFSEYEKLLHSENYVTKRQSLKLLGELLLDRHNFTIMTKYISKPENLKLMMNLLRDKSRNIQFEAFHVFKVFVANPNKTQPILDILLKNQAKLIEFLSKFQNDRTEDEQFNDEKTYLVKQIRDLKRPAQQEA
method_notes: LKB1 activity using LKBtide peptide
experimental_setup: LKBtide substrate; read-out: IC50, inhibition of LKB1 activity
Method: To directly determine LKB1 activity, kinase assays were performed in the presence or absence of the indicated concentration of BAY-3827 or SBI-0206965 as for AMPK, except that LKBtide was used as a peptide substrate. PPM1A activity was determined using p-nitrophenyl phosphate (pNPP) as a substrate. […] The reaction was quenched by the addition of 1 mL of 0.5 M EDTA and the amount of product, p-nitrophenol, determined by measuring absorbance at 405 nm.
measurement_type: IC50 (µM)

compound="CNC(=O)c1ccccc1Oc1nc(Nc2cc(OC)c(OC)c(OC)c2)ncc1Br [SBI-0206965]" measurement_type=IC50 number=6.1
